- Tested on: NCI-H841 complex tumor spheroid viability
- Test Description: Anticancer human tumor NCI-H841 cell line growth inhibition;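 note: spheroids exposed to compounds for 7 days before readout; 100% = DMSO vehicle control wells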
- Measurement Parameters: second compound 0.003 µM; first compound 0.949 µM; hits give low values
Measured Parameter: viability, T/C (%)
Form entry: value (%) — number only.

1) Cn1ncnc1[C@H]1c2n[nH]c(=O)c3cc(F)cc(c23)N[C@@H]1c1ccc(F)cc1 + COc1cc2c(cc1O)CCNC21CSC2c3c(OC(C)=O)c(C)c4c(c3C(COC1=O)N1C(O)C3Cc5cc(C)c(OC)c(O)c5C(C21)N3C)OCO4
0.1
2) Cn1ncnc1[C@H]1c2n[nH]c(=O)c3cc(F)cc(c23)N[C@@H]1c1ccc(F)cc1 + CC[C@@]1(O)C(=O)OCc2c1cc1n(c2=O)Cc2cc3c(CN(C)C)c(O)ccc3nc2-1
1.44
3) O=C(c1cc(Cc2n[nH]c(=O)c3ccccc23)ccc1F)N1CCN(C(=O)C2CC2)CC1 + COc1cc2c(cc1O)CCNC21CSC2c3c(OC(C)=O)c(C)c4c(c3C(COC1=O)N1C(O)C3Cc5cc(C)c(OC)c(O)c5C(C21)N3C)OCO4
0.13
4) Cc1sc2c(c1C)C(c1ccc(Cl)cc1)=NC(CC(=O)Nc1ccc(O)cc1)c1nnc(C)n1-2 (stereo not given) + CC[C@@]1(O)C(=O)OCc2c1cc1n(c2=O)Cc2cc3c(CN(C)C)c(O)ccc3nc2-1
6.68

Now let's try a different one.
Incoming: Query the reported viability, T/C for NCI-H841 complex tumor spheroid viability; item: CNCc1ccc(-c2cc(-c3nc(-c4ccc(S(=O)(=O)C(C)C)cc4)cnc3N)on2)cc1 + CC[C@@]1(O)C(=O)OCc2c1cc1n(c2=O)Cc2cc3c(CN(C)C)c(O)ccc3nc2-1
Outgoing: 1.29
